Test system: Leishmania donovani
Assay: Antikinetoplastid activity against Leishmania donovani LV9 […] amastigotes in mouse RAW264.7 cells assessed as viability measured 24 hrs by SYBR green assay
Type: functional, organism-based
Conditions: LV9, RAW264.7, 24 h
pIC50: −log10 of the molar value.
result.type: pIC50

get_value(item= COCC(=O)NCCCCN(CCCNC(=O)OC(C)(C)C)C(=O)OC(C)(C)C , readout=pIC50) returns < 4.00

get_value(item= CC(=O)NCCSCC(=O)NCCCCNCCCN.Cl , readout=pIC50) returns < 4.00

get_value(item= CC(=O)NCCSCC(=O)NCCCNCCCCNCCCN.Cl , readout=pIC50) returns < 4.00

get_value(item= CC(C)(C)OC(=O)NCCCCN(CCC#N)C(=O)OC(C)(C)C , readout=pIC50) returns < 4.00

get_value(item= CCCCCCCCCCCCCCCCOP(=O)([O-])OCC[N+](C)(C)C [MILTEFOSINE] , readout=pIC50) returns 4.99

get_value(item= CC(=O)NCCSCC(=O)NCCCNCCCCN.Cl , readout=pIC50) returns 4.15

get_value(item= CC(C)(C)OC(=O)NCCCCNCCCNC(=O)OC(C)(C)C , readout=pIC50) returns < 4.00

get_value(item= N=C(N)c1ccc(OCCCCCOc2ccc(C(=N)N)cc2)cc1 [PENTAMIDINE] , readout=pIC50) returns 5.38

get_value(item= COCC(=O)NCCCCNC(=O)OC(C)(C)C , readout=pIC50) returns < 4.00

get_value(item= COCC(=O)NCCCCNCCCN.Cl , readout=pIC50) returns 4.30

get_value(item= COCC(=O)NCCCCN.Cl , readout=pIC50) returns < 4.00

get_value(item= CC(C)(C)OC(=O)NCCCCN(CCCN)C(=O)OC(C)(C)C , readout=pIC50) returns < 4.00

get_value(item= COCC(=O)NCCCNCCCCN.Cl , readout=pIC50) returns 5.26

get_value(item= CC(C)(C)OC(=O)NCCCCN , readout=pIC50) returns < 4.00

get_value(item= COCC(=O)N(CCCCNC(=O)OC(C)(C)C)CCCNC(=O)OC(C)(C)C , readout=pIC50) returns < 4.00
